Origin of the recorded values: the supplement of paper PMC10065799

# assayed target: MERTK (UniProt Q12866)
# Sequence (Q12866 whole entry, looked up): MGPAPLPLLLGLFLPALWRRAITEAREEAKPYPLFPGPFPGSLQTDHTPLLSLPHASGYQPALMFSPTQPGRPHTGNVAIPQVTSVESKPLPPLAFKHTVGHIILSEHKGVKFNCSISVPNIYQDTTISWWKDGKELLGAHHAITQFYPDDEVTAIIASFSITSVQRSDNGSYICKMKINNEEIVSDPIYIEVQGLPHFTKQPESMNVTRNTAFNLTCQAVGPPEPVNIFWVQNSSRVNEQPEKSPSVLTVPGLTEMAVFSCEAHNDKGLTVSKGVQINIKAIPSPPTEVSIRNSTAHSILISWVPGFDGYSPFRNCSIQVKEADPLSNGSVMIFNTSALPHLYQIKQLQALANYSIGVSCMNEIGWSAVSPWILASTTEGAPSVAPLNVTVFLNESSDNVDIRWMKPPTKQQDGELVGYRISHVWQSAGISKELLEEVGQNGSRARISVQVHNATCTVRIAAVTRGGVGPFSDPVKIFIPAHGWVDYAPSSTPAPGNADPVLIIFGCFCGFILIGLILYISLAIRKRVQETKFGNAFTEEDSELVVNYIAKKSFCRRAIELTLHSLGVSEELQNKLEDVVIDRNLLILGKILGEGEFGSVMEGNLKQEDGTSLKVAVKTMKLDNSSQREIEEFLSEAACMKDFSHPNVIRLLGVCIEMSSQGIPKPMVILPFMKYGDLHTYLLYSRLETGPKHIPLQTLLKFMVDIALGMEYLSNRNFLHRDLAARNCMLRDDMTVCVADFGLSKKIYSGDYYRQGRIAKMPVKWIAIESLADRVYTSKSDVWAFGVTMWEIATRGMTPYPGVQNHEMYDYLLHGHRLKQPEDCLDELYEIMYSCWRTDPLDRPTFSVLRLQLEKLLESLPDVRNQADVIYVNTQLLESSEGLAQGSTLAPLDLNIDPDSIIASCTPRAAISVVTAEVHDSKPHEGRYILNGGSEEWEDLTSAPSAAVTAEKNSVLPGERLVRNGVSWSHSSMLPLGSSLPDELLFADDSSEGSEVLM
# protocol notes: phosphorylation enrichment, bacterial display (enrichment ratio); higher = better substrate or ligand; peptides without Tyr show the background;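 further: 11-residue human phosphosite peptides and single-mutation variants displayed on the E. coli surface, counted by deep sequencing, each peptide's frequency after selection divided by its frequency in the unselected input library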;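 further: frequency after pTyr selection over input frequency; kinase dosed for 20-30% of maximal phosphorylation in three min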
readout: phosphorylation enrichment
Numbers only.

Consider the following illustrative entries.
sequence_code="VAMDDYLKNVM [LRRK2_Y707]" test_result=0.51
sequence_code="ADKSAYLMGLN [MYH7_Y386]" test_result=0.502

Turning now to a further record.
Exercise: Query: phosphorylation enrichment; subject: DFLSSYSAVNE [OAT_Y85_Q90E]
Key: 0.49

----------
# assayed target: MERTK (UniProt Q12866)
# protocol notes: phosphorylation enrichment, bacterial display (enrichment ratio); higher = better substrate or ligand; peptides without Tyr show the background
readout: phosphorylation enrichment
Give bare numbers.

Consider the following illustrative entries.
sequence_code="SVVVPYEAPEV [TP53_Y220_P222A]" readout="phosphorylation enrichment" test_result=0.969
sequence_code="TLQTMYGCDVG [HLA-B_Y123_S121T]" readout="phosphorylation enrichment" test_result=0.647

Parameters: items (list). Returns: phosphorylation enrichment for each item.
1. FPKARYRWLVL [APTX_Y214_H215R_YF]
2. YQEPVYSVAFS [TBL1X_Y509_H504Y]
3. SAASSYSFSDL [EMD_Y59]

Key:
1: 0.494; 2: 12.7; 3: 0.498

Parameters: items (list). Returns: phosphorylation enrichment for each item.
1. GPKFGYDEIDN [ACOX1_Y232]
2. PSSRDYKHNIK [PIGN_Y227]
3. FVHDNYVIRRT [CPS1_Y1450]
4. ETDPRYFDEEF [AKT1_Y437_T435P]

Key:
0.381
0.463
0.391
0.483

----------
For each record, write down the corresponding phosphorylation enrichment.
# assayed target: EPHB1 (UniProt P54762)
# Sequence (P54762 whole entry, looked up): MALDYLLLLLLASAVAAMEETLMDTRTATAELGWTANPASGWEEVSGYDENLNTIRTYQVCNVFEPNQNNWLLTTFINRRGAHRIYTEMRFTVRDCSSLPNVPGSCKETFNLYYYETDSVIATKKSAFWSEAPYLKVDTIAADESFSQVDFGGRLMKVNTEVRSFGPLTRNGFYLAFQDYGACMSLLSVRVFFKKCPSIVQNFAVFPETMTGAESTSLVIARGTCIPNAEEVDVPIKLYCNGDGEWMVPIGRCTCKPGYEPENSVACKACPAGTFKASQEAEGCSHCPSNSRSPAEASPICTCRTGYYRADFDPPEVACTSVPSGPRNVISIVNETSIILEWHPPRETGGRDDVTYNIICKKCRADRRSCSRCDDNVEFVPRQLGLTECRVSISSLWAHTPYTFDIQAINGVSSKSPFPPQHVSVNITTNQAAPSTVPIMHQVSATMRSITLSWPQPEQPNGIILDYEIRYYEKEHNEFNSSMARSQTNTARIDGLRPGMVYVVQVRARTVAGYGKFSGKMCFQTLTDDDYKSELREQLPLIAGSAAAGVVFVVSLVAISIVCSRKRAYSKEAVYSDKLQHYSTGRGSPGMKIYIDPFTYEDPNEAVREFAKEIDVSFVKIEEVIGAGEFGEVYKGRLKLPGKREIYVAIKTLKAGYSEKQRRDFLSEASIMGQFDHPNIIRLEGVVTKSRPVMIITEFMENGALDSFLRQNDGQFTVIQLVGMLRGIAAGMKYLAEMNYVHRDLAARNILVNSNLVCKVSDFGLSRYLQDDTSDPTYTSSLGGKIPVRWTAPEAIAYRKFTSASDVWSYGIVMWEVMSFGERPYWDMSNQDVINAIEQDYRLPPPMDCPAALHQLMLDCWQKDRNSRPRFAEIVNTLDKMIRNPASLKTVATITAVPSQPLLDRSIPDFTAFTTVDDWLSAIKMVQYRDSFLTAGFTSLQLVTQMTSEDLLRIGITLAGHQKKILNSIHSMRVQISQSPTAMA
# protocol notes: phosphorylation enrichment, bacterial display (enrichment ratio); higher = better substrate or ligand; peptides without Tyr show the background
One number for each entry.

Consider the following illustrative entries.
sequence_code="ATVRPYRPYII [LRP5_Y1528_A1525V]" assayed_target="EPHB1 (UniProt P54762)" test_result=0.499
sequence_code="SLTRLCVGENA [NLRP3_Y861_Y861C]" assayed_target="EPHB1 (UniProt P54762)" test_result=0.495
sequence_code="CLMILHRLKER [PTPRR_Y249_Y249H]" assayed_target="EPHB1 (UniProt P54762)" test_result=0.496

Parameters: items (list). Returns: phosphorylation enrichment for each item.
1. DLDTDYGSGYP [RNASEH2A_Y206]
2. PKGTGYIKTES [STAT1_Y701_L706S]
3. EEGNPYFSSTR [MCCC2_Y520_A524T_YF]
4. IEEGTYGVAYR [CDK11B_Y449_V452A]

Key:
1: 0.691; 2: 0.504; 3: 0.509; 4: 0.686

----------
# assayed target: FGFR1 (UniProt P11362)
# Sequence (P11362 whole entry, looked up): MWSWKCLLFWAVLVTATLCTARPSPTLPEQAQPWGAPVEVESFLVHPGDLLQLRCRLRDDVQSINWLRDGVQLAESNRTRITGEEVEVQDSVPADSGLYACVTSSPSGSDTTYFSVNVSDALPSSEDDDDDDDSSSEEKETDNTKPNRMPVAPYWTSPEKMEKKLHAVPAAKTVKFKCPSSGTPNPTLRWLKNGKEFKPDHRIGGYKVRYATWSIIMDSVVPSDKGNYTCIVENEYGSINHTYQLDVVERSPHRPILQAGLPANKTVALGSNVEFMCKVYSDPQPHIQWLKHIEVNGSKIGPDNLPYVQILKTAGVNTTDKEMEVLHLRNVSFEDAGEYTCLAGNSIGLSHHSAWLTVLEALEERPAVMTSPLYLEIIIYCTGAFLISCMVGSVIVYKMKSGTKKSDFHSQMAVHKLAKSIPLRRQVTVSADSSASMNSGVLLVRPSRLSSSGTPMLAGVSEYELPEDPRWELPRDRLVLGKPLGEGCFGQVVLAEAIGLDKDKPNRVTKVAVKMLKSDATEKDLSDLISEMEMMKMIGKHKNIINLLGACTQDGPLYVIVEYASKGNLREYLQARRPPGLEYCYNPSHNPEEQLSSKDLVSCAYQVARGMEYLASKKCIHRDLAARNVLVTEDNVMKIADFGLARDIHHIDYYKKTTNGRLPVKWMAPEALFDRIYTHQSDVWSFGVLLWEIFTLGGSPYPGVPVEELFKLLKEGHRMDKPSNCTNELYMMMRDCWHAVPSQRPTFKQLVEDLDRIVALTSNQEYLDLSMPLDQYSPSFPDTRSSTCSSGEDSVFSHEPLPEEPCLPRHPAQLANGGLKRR
# protocol notes: phosphorylation enrichment, bacterial display (enrichment ratio); higher = better substrate or ligand; peptides without Tyr show the background
For each record, write down the corresponding phosphorylation enrichment.
Answers are plain numbers.

Consider the following illustrative entries.
sequence_code="HELFVYKSDEN [DOCK3_Y548_C550S_YF]" readout="phosphorylation enrichment" test_result=0.94
sequence_code="SVTCTYSPALY [TP53_Y126_N131Y]" readout="phosphorylation enrichment" test_result=0.523

Parameters: items (list). Returns: phosphorylation enrichment for each item.
1. STAPSYGNPSS [CD19_Y378_G373S]
2. SAASSYSFSDL [EMD_Y59]
3. GGTTMYPGIAD [ACTC1_Y308]
4. GGSSPYSRRLA [CDK13_Y351_P356A]
5. EDDIIYTQDFT [STK11_Y362]
6. PCLLRYLQLDF [ASB10_Y457_R453C]

Key:
[0.361, 0.434, 0.451, 0.356, 0.652, 1.18]

----------
# assayed target: MERTK (UniProt Q12866)
# protocol notes: phosphorylation enrichment, bacterial display (enrichment ratio); higher = better substrate or ligand; peptides without Tyr show the background
readout: phosphorylation enrichment

sequence_code="VEDQFYCVDCF [FHL1_Y208_YF]" assayed_target="MERTK (UniProt Q12866)" readout="phosphorylation enrichment" test_result=5.12
sequence_code="QDLFLYQTHSE [PKHD1_Y255]" assayed_target="MERTK (UniProt Q12866)" readout="phosphorylation enrichment" test_result=0.543
sequence_code="VEYAKYGSLRG [RET_Y809]" assayed_target="MERTK (UniProt Q12866)" readout="phosphorylation enrichment" test_result=0.473
sequence_code="VHNLDYYKETT [FGFR3_Y647_K650E]" assayed_target="MERTK (UniProt Q12866)" readout="phosphorylation enrichment" test_result=0.39
sequence_code="AIMSFYAALIN [RYR1_Y2426_D2431N]" assayed_target="MERTK (UniProt Q12866)" readout="phosphorylation enrichment" test_result=1.09
sequence_code="AQQPIYVRVEG [NLRP7_Y318]" assayed_target="MERTK (UniProt Q12866)" readout="phosphorylation enrichment" test_result=2.46
sequence_code="SNYRAYATEPH [TNNI3_Y29]" assayed_target="MERTK (UniProt Q12866)" readout="phosphorylation enrichment" test_result=0.397

Exercise: Query: phosphorylation enrichment; subject: CIILLYIFLKN [STXBP1_Y411_R406C]
Key: 0.363

----------
# Tested on: AncSZ
# protocol notes: phosphorylation enrichment, bacterial display (enrichment ratio); higher = better substrate or ligand; peptides without Tyr show the background
readout: phosphorylation enrichment
Answers are plain numbers.

Consider the following illustrative entries.
sequence_code="REGKIYEYNQV [ZNF665_Y162_H157R]" test_result=0.799
sequence_code="RAEIVYKSPVV [MAPT_Y711_G706R]" test_result=0.995
sequence_code="FRDALYKSMVD [PHEX_Y250_F252S_YF]" test_result=0.792
sequence_code="SLTRLCVGENA [NLRP3_Y861_Y861C]" test_result=0.809
sequence_code="FPKARYRWLVL [APTX_Y214_H215R_YF]" test_result=0.715

Parameters: items (list). Returns: phosphorylation enrichment for each item.
1. FSTSPYLLEAA [BRIP1_Y921_YF]
2. KGEDFYCVTRH [FHL1_Y149_C153R]
3. AIMSFYAALIN [RYR1_Y2426_D2431N]
4. FFDANCDGKEF [MAPRE2_Y162_Y162C_YF]
5. HKDNNYISMWF [PAPOLG_Y432_V433I]
6. PARLEYFENEK [IRS1_Y46_YF]

Key:
[0.782, 1.22, 1.13, 1.26, 1.93, 1.35]

Parameters: items (list). Returns: phosphorylation enrichment for each item.
1. YFVVEYRDQKP [MUC17_Y4332]
2. SMGMKYLEEKN [ZAP70_Y451]
3. FFIMMYTGSNV [DNAJC13_Y1131]
4. SIIKDYFHRGT [GATM_Y203_A208T]
5. IKNSGYISQYL [EIF2AK3_Y585_R588Q]
6. SAASSYSFSDL [EMD_Y59]
7. MAPQMYEFHLP [NCAPD2_Y6]
8. FGSLLYKYAFK [FANCD2_Y458]

Key:
1. 2.1
2. 0.717
3. 1.3
4. 0.656
5. 0.593
6. 0.839
7. 0.795
8. 0.839

Parameters: items (list). Returns: phosphorylation enrichment for each item.
1. RGYRQDAYDGK [HLA-A_Y140]
2. INPIIYAFVGG [CCR5_Y297_E302G]
3. QRRFLYFFSFL [PTEN_Y176_V175L_YF]
4. RVKTPYSLKRW [BMPR2_Y979]

Key:
[0.773, 1.14, 1.61, 1.19]

Parameters: items (list). Returns: phosphorylation enrichment for each item.
1. KKLHKYNTQFQ [PIK3R1_Y452_E451K]
2. CVGGFYGGCNE [CTSC_Y352_Y347C]
3. EGTATYAAAVL [JUP_Y644]
4. GRPMDYQVSIT [OTOF_Y254]
5. HSREDYFECFQ [ZIM2_Y411_Q408R]
6. GGTPLYMDRQG [AGXT_Y194]

Key:
1. 0.577
2. 0.81
3. 0.587
4. 0.812
5. 2.12
6. 0.606

Exercise: Query: phosphorylation enrichment; subject: TLNHQYDYTFH [CSNK1A1_Y292_D297H]
Key: 0.998

----------
# Tested on: c-Abl (mouse)
# protocol notes: phosphorylation enrichment, bacterial display (enrichment ratio); higher = better substrate or ligand; peptides without Tyr show the background
readout: phosphorylation enrichment
Numbers only.

Consider the following illustrative entries.
sequence_code="RRNVYYYSYLL [PTEN_Y177_Y174N]" readout="phosphorylation enrichment" test_result=0.616
sequence_code="FEHVGYTTLNR [CHN1_Y148_YF]" readout="phosphorylation enrichment" test_result=0.68

Turning now to a further record.
Exercise: Recorded phosphorylation enrichment for AQADIYKADFQ [IKBKG_Y308] with c-Abl (mouse), please?
Key: 0.675
